Target: T1, CCR1 (Homo sapiens, UniProt P32246)
T1 sequence (P32246 1-355): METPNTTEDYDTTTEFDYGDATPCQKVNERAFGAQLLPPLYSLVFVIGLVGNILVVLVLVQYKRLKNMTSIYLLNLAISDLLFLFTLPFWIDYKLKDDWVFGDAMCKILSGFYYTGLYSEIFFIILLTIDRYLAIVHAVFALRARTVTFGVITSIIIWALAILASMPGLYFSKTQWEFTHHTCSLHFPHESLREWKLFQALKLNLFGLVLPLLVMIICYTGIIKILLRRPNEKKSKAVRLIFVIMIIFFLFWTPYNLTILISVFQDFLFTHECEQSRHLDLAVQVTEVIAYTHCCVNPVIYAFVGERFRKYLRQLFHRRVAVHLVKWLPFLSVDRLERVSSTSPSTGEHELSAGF
Assay: Competition binding with 125I-MIP-1α on human monocytes
Design: endogenous in cells; host or cells: human CD14+ monocytes from buffy coats
Readout label: inhibition of 125I-MIP-1α binding

CCL23β Δ24: truncated form of CCL23β lacking the 24-residue N-terminal domain, beginning with the SHAAGtide insertion (protein, listed as Homo sapiens) MLWRRKIGPQMTLSHAAGFHATSADCCISYTPRSIPCSLLESYFETNSECSKPGVIFLTKKGRRFCANPSDKQVQVCMRMLKLDTRIKTRKN    moderate competitors
CCL23/CKβ8: recombinant full-length human chemokine CCL23 (22-120), 99-residue protein (protein, listed as Homo sapiens) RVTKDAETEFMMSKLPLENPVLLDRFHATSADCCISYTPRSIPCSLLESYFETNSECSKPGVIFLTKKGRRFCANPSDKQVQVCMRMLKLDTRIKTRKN    moderate competitors
